EXPERIMENTAL TARGET: human orexin 1 receptor (Homo sapiens)
Sequence (O43613 whole entry): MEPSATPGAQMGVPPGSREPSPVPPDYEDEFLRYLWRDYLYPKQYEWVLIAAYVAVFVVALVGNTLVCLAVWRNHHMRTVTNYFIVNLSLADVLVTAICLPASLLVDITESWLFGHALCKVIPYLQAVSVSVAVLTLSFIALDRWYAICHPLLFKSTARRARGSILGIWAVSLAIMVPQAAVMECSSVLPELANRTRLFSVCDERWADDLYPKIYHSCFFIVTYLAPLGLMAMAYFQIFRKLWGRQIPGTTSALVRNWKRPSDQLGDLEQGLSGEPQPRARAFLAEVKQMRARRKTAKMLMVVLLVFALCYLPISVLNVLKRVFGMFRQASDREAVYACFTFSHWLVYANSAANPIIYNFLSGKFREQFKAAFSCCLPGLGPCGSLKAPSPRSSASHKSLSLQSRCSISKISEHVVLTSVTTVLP
ASSAY METHOD TEXT: Calcium accumulation in cells (FLIPR), antagonism of orexin A, human orexin 1 receptor
RECORDED CONDITIONS: calcium accumulation, antagonism of orexin A, Cheng-Prusoff corrected; read-out: FLIPR hOx1R Ki
pKi: −log10 of the molar value.
Label not fulfilled if pKi falls below 6; label fulfilled in every other case.

Some solved entries appear below for comparison.
| MOLECULE | GROUP LABEL |
| --- | --- |
| COc1cccc(-c2oc(C)nc2CN2CCNC3(CCN(c4nc(C)cc(C)n4)CC3)C2=O)c1 | fulfilled |
| COc1cccc(-c2n[nH]nc2CN2CCCC3(CCN(c4nccc(OC)n4)C3)C2=O)c1 (centres unmarked) | fulfilled |
| COc1cccc(-c2ocnc2CN2CCNC3(CCN(c4nc(C)cc(C)n4)CC3)C2=O)c1 | fulfilled |
| Cc1cc(C)nc(N2CCC3(CC2)OCCN(Cc2n[nH]nc2-c2ccccc2)C3=O)n1 | not fulfilled |
| COc1cc(C)nc(N2CCC3(CCN(Cc4nn(C)nc4-c4ccccc4)C3=O)C2)n1 (centres unmarked) | fulfilled |
| COc1ccnc(N2CCC3(CCN(Cc4c[nH]c5ccccc45)C3=O)C2)n1 (centres unmarked) | not fulfilled |

Hi, just wondering whether Cc1ccc(C)c(CN2C(=O)CCC23CCN(c2cnc4ccccc4n2)CC3)c1 shows pKi of 6 or higher.
fulfilled

And for COc1cc(C)nc(N2CCC3(CC2)OCCN(Cc2c[nH]c4ccccc24)C3=O)n1 ?
fulfilled

Same again, this time with Cc1cc(C)nc(N2CCC3(CC2)OCCN(Cc2n[nH]c4ccccc24)C3=O)n1
not fulfilled

Numbers sourced from patent US20120165331A1.
